# Tested on: Fibroblast
# assay-protocol: Incucyte cell viability with human fibroblast; also: unitless GR value; below 1 slowed growth and below 0 cell loss
# Type: toxicity, cell-based
# condition-label: 18 h, 10 µM, compound concentration 10 uM, replicate number 1
Recorded Growth Rate for the following compounds
Simply state the number, no unit and no words.

See these solved cases before continuing.
> print(dat)
                                   compound  value.reported
1  O=C(O)CCCCCC[C@@H]1C(=O)NC(=O)N1CCC(O)C1CCCCC1 (stereo partly drawn)            0.69
2  Cc1ccc(S(=O)(=O)O)cc1.Cn1cc(Nc2nccc(N3CC4CCC(C3)N4C(=O)[C@@H]3CC3(F)F)n2)cn1             0.4

Could you now look at the following compound, please?
Recorded result, C[C@@]1(Cc2ccc(C#N)cc2)C(=O)N(c2cc(Cl)cc(Cl)c2)c2ncc(C(=O)NC3(c4nc(C5CCC5)no4)CC3)n21 [BI 9446] , Growth Rate: 0.41

---

# Test system: HEK-293T
# assay-protocol: Incucyte cell viability with HEK293T; also: unitless GR value; below 1 slowed growth and below 0 cell loss
# Assay type: toxicity, cell-based
# condition-label: human, 12 h, 10 µM, compound concentration 10 uM, replicate number 1
Recorded Growth Rate for the following molecules

> print(dat)
                                   molecule  value.reported
1  COc1cc(Nc2cnc(C#N)c(O[C@H](C)CN(C)C)n2)ncc1-c1cnn(C)c1            -0.1
2  CCc1cc2c(cc1-c1cccc(S(=O)(=O)F)c1)C(C)(C)c1[nH]c3cc(C#N)ccc3c1C2=O            0.48
3  CC(C)(O)c1cn(-c2ccc(-c3cccc(S(C)(=O)=O)c3)cc2)c(C(C)(C)c2ccccc2Cl)n1 [BMS-779788]            0.97
4  Cc1ccc(NC(=O)c2ccc(CN3CC[C@H](N(C)C)C3)c(C(F)(F)F)c2)cc1Nc1nccc(-c2cncnc2)n1 [BAFETINIB]            0.67
5  Cc1ccc(-n2nc(C(C)(C)C)cc2NC(=O)Nc2ccc(OCCN3CCOCC3)c3ccccc23)cc1 [DORAMAPIMOD]            0.67
6              CCn1c(-c2ccncc2)cc2c1CCNC2=O           -0.65
7  COc1cc2c(NC3CCN(C(C)C)CC3)nc(C3CCCCC3)nc2cc1OCCCN1CCCC1           -0.43

Could you now look at the following molecule, please?
Recorded result, CCNc1ccc(-c2nn(-c3ccccc3C)c3c2C(C)Cc2nc(NC(=O)OC)sc2-3)cn1.O=C(O)C(F)(F)F (stereo not drawn) , Growth Rate: -0.41

---

Recorded Growth Rate for the following compounds
# Test system: Fibroblast
# assay-protocol: Incucyte cell viability with human fibroblast; also: unitless GR value; below 1 slowed growth and below 0 cell loss
# Assay type: toxicity, cell-based
# condition-label: 0 h, 10 µM, compound concentration 10 uM, replicate number 1
Simply state the number, no unit and no words.

Recorded result, Cc1nsc(Nc2cnc(C(F)(F)F)cn2)c1C(=O)Nc1ccc(O[C@H]2CCCN(CC(F)(F)F)C2)nc1 , Growth Rate: -1

Recorded result, Nc1ccc(-c2cnc(N)c(-c3ccc(Cl)cc3)c2)cn1 , Growth Rate: 0.71

Recorded result, N#Cc1ccc(C#CC[C@@H](C#N)NC(=O)[C@H]2CCCCN2)cc1F.O=C(O)C(F)(F)F , Growth Rate: -1

Recorded result, CC(C)c1ccc(CC(=O)N[C@H](C)c2ccc(OCC(F)(F)F)cn2)cc1 [SUVECALTAMIDE] , Growth Rate: -0.55

---

# Test system: HEK-293T
# assay-protocol: Incucyte cell viability with HEK293T; also: unitless GR value; below 1 slowed growth and below 0 cell loss
# Format: toxicity, cell-based
# condition-label: human, 24 h, 10 µM, compound concentration 10 uM, replicate number 2
# binarize Growth Rate: threshold 0.8 inclusive, high side met, low side not met

Below are worked cases with known answers.
> print(dat)
                                   compound  class.name
1  CN1CCCN(C(=O)c2cccc(-c3ccc(/C=C4/C(=O)Nc5ccc(Cl)cc54)o3)c2)CC1     not met
2  CCN1CCN(Cc2ccc(Nc3ncc(F)c(-c4cc(F)c5nc(C)n(C(C)C)c5c4)n3)nc2)CC1.CS(=O)(=O)O     not met
3  CC/C(=C(\c1ccccc1)c1ccc(OCCN(C)C)cc1)c1ccccc1.O=C(O)CC(O)(CC(=O)O)C(=O)O [TAMOXIFEN CITRATE]     not met
4  CC(C)(C)c1cnc(CSc2cnc(NC(=O)C3CCN(CC(=O)NCCOCCOCCOCCNc4cccc5c4C(=O)N(C4CCC(=O)NC4=O)C5=O)CC3)s2)o1 (stereo not given)     not met
5  Fc1ccc(-c2nc(-c3c(F)cccc3F)[nH]c2-c2ccncc2)cc1     not met

Decide: Growth Rate of O=C(O)[C@]1(Cc2cccc(Nc3nccs3)n2)CC[C@@H](Oc2cccc(Cl)c2F)CC1 >= 0.8?
not met

Decide: Growth Rate of CC(=O)Nc1nc(CN2CCC[C@H](Cc3cc(C)nc(C)c3)C2)cs1 >= 0.8?
met

---

Recorded Growth Rate for the following compounds
# Tested on: HEK-293T
# assay-protocol: Incucyte cell viability with HEK293T; also: unitless GR value; below 1 slowed growth and below 0 cell loss
# Type: toxicity, cell-based
# condition-label: human, 6 h, 10 µM, compound concentration 10 uM, replicate number 2

See these solved cases before continuing.
> print(dat)
                                   compound  result.type  value.reported
1  CC(C)NC(=O)[C@H]1CCC[C@H]1Nc1nc(Nc2ccc(CN(C)C)cc2)ncc1Br.Cl  Growth Rate            -0.5
2  CC1(C)C(=O)N([C@H]2CCc3c(O)cccc32)c2nc(Nc3cccc(CN4CCCC4)c3)ncc21  Growth Rate           -0.56
3  C[C@@H](Oc1cc(-n2cnc3ccc(OC4CCN(C)CC4)cc32)sc1C(N)=O)c1ccccc1Cl [GSK-579289A]  Growth Rate            0.94

Recorded result, CCC(=O)N[C@@H]1CC[C@H](C(=O)N(C)c2ccc(-c3nc4ccccc4o3)cc2)C1 , Growth Rate: 0.12

---

Recorded Growth Rate for the following compounds
# Tested on: HEK-293T
# assay-protocol: Incucyte cell viability with HEK293T; also: unitless GR value; below 1 slowed growth and below 0 cell loss
# Type: toxicity, cell-based
# condition-label: human, 18 h, 10 µM, compound concentration 10 uM, replicate number 2
Simply state the number, no unit and no words.

See these solved cases before continuing.
> print(dat)
                           molecular.string  value.reported
1  CC(=O)O.NCCCc1c(C(=O)O)[nH]c2ccc(C(=O)Nc3ccccc3)cc12            0.93
2  O=C(Nc1ccccc1Cl)c1cnc2ccc(C3CCNCC3)cn12.O=C(O)C(=O)O           -0.27

Could you now look at the following compound, please?
Recorded result, CN[C@@H](C)C(=O)N[C@H](C(=O)N1CCC[C@H]1C(=O)N[C@@H]1CCCc2ccccc21)C1CCCCC1.Cl , Growth Rate: 0.87

---

# System: U2OS
# assay-protocol: Incucyte cell viability with U2OS; also: unitless GR value; below 1 slowed growth and below 0 cell loss
# Assay type: toxicity, cell-based
# condition-label: human, 0 h, 10 µM, compound concentration 10 uM, replicate number 1
Recorded Growth Rate for the following molecules

See these solved cases before continuing.
> print(dat)
                           molecular.string  value.reported
1  CC(C)(C)S(=O)(=O)c1ccc2nccc(Nc3n[nH]c4ccc(F)cc34)c2c1           -0.83
2  COc1ccccc1N1CCN(c2ncnc3c2cnn3-c2ccccc2)CC1            0.75
3  COC(=O)Nc1nc2c(s1)-c1c(c(-c3cccnc3)nn1-c1ccc(C3(N(C)C)CC3)cc1)CC2.Cl.Cl           -0.99

Recorded result, COc1ccccc1S(=O)(=O)Nc1ccc2c(c1)CN(C)C(=O)N2 , Growth Rate: -0.66

Recorded result, CC(C)[C@H](CO)Nc1nc(Nc2ccc(C(=O)O)c(Cl)c2)c2ncn(C(C)C)c2n1 , Growth Rate: -0.96

Recorded result, CCN(CC)CCO[C@H]1CC[C@@]2(C)C(=CC[C@@H]3[C@@H]2CC[C@]2(C)C(=O)CC[C@@H]32)C1.Cl , Growth Rate: 0.56

Recorded result, Nc1ncc2c(n1)-c1c([nH]c3ccc(C4CC4)cc13)CCCC2 , Growth Rate: -0.99

Recorded result, CCN1/C(=C/C(C)=O)Sc2ccc(OC(C)=O)cc21 , Growth Rate: 0.39

Recorded result, COc1cc2c(cc1CC=C(C)C)C(=O)C[C@@H](c1ccc(O)cc1)O2 , Growth Rate: -0.43

Recorded result, CN1CCN([C@H]2CC[C@@H](n3cc(-c4ccc(Oc5ccccc5)cc4)c4c(N)ncnc43)CC2)CC1 , Growth Rate: -1

---

# System: Fibroblast
# assay-protocol: Incucyte cell viability with human fibroblast; also: unitless GR value; below 1 slowed growth and below 0 cell loss
# Assay type: toxicity, cell-based
# condition-label: 6 h, 10 µM, compound concentration 10 uM, replicate number 1
result-type: Growth Rate

See these solved cases before continuing.
> print(dat)
                                   molecule  value.reported
1  CN[C@@H]1CC[C@@H](c2ccc(Cl)c(Cl)c2)c2ccccc21.Cl           -0.46
2  Cc1cc2nc(N3CCC(C(=O)NC4CCCC4)CC3)n(C(C)C)c2cc1C            0.17
3  COc1cc(C)c(S(=O)(=O)N(C)CCC(=O)N[C@H]2CC[C@@H](N3CCC4CN(C)CC4C3)CC2)c(C)c1.Cl.Cl (some centres undefined)            0.39
4  CCOP(=O)(OCC)C(=Cc1cc(C(C)(C)C)c(O)c(C(C)(C)C)c1)P(=O)(OCC)OCC            0.57
5  Cl.Clc1cc2cc(c1)-c1cnn3ccc(nc13)NCCOCCO2            0.79
6  Cc1c(-c2c(F)cc(C(N)=O)c3[nH]c4c(c23)CC[C@H](C(C)(C)O)C4)cccc1-n1c(=O)c2cccc(F)c2n(C)c1=O           -0.27
7  CC(=O)NCC(=O)N1[C@@H]2CC[C@H]1c1ccc(Nc3ncc(C(F)(F)F)c(NC4CCC4)n3)cc12              -1
8  O=C1C[C@@H]2OCC=C3CN4CC[C@]56c7ccccc7N1[C@H]5[C@H]2[C@H]3C[C@H]46            0.71

Recorded result, O=C(CNCc1cc2ccccc2[nH]1)N[C@H]1CC[C@@H](c2nc3ccccc3[nH]2)CC1 , Growth Rate: 0.9

Recorded result, CC(C)(O)C(=O)N1CCN(c2ccc(C(F)(F)F)c(C3=C(c4c[nH]c5ccccc45)C(=O)NC3=O)c2)CC1 , Growth Rate: -0.74
